# Test description: Determination of the solubility
# Format: physicochemical
# Condition parameters: aqueous buffer, kinetic from dmso stock, PBS buffer pH 6.5, 20° C., read-out: Solubility [mg/liter] PBS buffer
# Experimental: B-8. Determination of the Solubility • PBS buffer pH 6.5: 90.00 g of NaCl p.a. (for example from Merck, Art. No. 1.06404.1000), 13.61 g of KH2PO4 p.a. […] The samples are analyzed by RP-HPLC. Quantification is carried out using a two-point calibration curve of the test compound in DMSO. […]
Please respond with reported solubility at 24 h for every item in the list.
Please respond with the number in mg/L and leave the unit unwritten.

Measured solubility at 24 h of N#Cc1c(N)nc(SCc2cccc(C(N)=O)c2)c(C#N)c1-c1ccccc1 [Example 33] : 5

Consider N#Cc1c(NC[C@@H](O)CO)nc(SCc2cccc(C(N)=O)c2)c(C#N)c1-c1ccccc1 [Example 99] . Its measured solubility at 24 h is 9

###

# Target under test: adenosine A2b receptor (Homo sapiens (Human))
# Sequence (P29275 whole entry): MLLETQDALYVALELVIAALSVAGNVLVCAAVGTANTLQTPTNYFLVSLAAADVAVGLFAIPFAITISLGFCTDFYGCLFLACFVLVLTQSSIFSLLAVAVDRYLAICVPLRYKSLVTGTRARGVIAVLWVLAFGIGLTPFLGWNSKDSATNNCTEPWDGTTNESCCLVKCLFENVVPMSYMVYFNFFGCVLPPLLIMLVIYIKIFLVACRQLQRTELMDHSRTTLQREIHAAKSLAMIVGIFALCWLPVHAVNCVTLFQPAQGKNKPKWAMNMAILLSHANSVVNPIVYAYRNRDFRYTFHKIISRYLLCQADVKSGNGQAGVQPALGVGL
# Test description: Indirect determination of adenosine agonism by gene expression (luciferase reporter), A2b cells
# Condition parameters: CHO cells stably transfected with adenosine A2b receptor, 50% of maximum stimulation
Provide the reported pEC50 of each item.
Please report pEC50 as the negative decimal logarithm of the molar concentration, giving only the number.

Short answer for CC(Sc1nc(N)c(C#N)c(-c2ccc(OCCO)cc2)c1C#N)c1cccc(C(N)=O)c1 (racemic) : pEC50 was 5.84

pEC50 in this record for CNC(=O)c1cc(CSc2nc(NCCO)c(C#N)c(-c3ccc(OCCO)nc3)c2C#N)ccn1 : 6.41

Measured pEC50 of CNC(=O)c1cc(CSc2nc(N)c(C#N)c(-c3ccc(OS(=O)(=O)N(C)C)cc3)c2C#N)ccn1 : 6.37

Summary for this compound, N#Cc1cnc(SCc2cccc(C(=O)O)c2)c(C#N)c1-c1ccccc1 : pEC50 is 6.97

###

# Target under test: UniProtKB P29274
# Sequence (P29274 whole entry): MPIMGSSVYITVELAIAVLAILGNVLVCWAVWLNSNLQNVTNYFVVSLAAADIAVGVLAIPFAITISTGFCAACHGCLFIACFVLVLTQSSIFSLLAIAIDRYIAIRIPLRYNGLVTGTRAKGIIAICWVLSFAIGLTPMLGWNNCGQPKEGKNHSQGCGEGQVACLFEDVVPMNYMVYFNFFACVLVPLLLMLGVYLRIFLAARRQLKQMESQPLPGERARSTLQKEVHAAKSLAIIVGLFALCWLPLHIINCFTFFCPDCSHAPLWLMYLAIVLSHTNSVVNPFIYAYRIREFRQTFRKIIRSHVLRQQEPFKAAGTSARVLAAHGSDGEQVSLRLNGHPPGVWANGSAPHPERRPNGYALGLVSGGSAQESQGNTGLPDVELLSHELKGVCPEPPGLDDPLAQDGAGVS
# Test description: Indirect determination of adenosine agonism by gene expression (luciferase reporter), A2a cells
# Condition parameters: CHO cells stably transfected with adenosine A2a receptor, 50% of maximum stimulation
Counter-ions that a name gives are not always drawn.
Property: pEC50
Reminder that pEC50 is minus the log10 of a molar concentration.

pEC50 reading for CS(=O)(=O)Nc1cccc(CSc2nc(N)c(C#N)c(-c3ccc(F)cc3)c2C#N)c1 : 5.75

Please fill in: pEC50 reported for N#Cc1c(SCc2ccnc(C(=O)NC3CC3)c2)nc(N2CCCC2)c(C#N)c1-c1ccccc1 = 5.99

Looking up CNC(=O)c1cc(CSc2nc(N)c(C#N)c(-c3ccc(OCCNC(=O)[C@H](C)N)cc3)c2C#N)ccn1 [Example 55, trifluoroacetate] , I see its pEC50 listed as 6.40

// pEC50 value for CNC(=O)c1cc(CSc2nc(N)c(C#N)c(-c3ccc(OC)cc3)c2C#N)ccn1 : 6.37

###

Please provide measured EC50 for the entries that follow.
# Target under test: adenosine A1 receptor (Homo sapiens (Human), UniProt P30542)
# Sequence (P30542 whole entry): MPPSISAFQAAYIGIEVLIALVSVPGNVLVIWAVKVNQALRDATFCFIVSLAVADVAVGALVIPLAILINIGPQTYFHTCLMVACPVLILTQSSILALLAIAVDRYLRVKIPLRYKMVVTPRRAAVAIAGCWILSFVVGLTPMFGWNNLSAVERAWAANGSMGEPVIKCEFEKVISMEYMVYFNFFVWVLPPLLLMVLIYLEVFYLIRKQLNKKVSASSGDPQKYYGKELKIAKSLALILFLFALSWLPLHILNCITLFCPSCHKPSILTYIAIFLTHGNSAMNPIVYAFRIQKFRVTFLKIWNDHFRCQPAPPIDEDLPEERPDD
# Test description: Indirect determination of adenosine agonism by gene expression (luciferase reporter), A1 cells
# Format: cell-based
# Condition parameters: CHO cells stably transfected with adenosine A1 receptor; 1 μM forskolin; 50% inhibition of luciferase response
Structures can show the parent of a compound that is named as a salt.
The response must be a number in nM with no trailing unit.

// EC50 lookup, compound = CS(=O)(=O)Nc1cccc(CSc2nc(N)c(C#N)c(-c3ccc(F)cc3)c2C#N)c1 , result: 0.7

get_value(item= N#Cc1c(N)nc(SCc2cccc(C(=O)NCCN)c2)c(C#N)c1-c1ccccc1 [Example 101, hydrochloride] , readout=EC50) returns 0.2

Value of measured EC50 for the entry CCNC(=O)c1cccc(CSc2nc(N3CCCC3)c(C#N)c(-c3ccc(OCCO)cc3)c2C#N)c1 : 0.3

Given item CNC(=O)c1cc(CSc2nc(N3CC(O)C3)c(C#N)c(-c3ccc(OC)cc3)c2C#N)ccn1 , the value recorded as its EC50 is 0.5

EC50 reading for CC(Sc1nc(N)c(C#N)c(-c2ccc(OCCO)cc2)c1C#N)c1cccc(C(N)=O)c1 (racemic) : 0.4

Item: CNC(=O)c1cc(CSc2nc(N)c(C#N)c(-c3ccc(F)c(OC)c3)c2C#N)ccn1 | EC50: 0.3

Lab note: measured EC50 of CCCOc1cccc(-c2c(C#N)c(N)nc(SCc3ccnc(C(=O)NC)c3)c2C#N)c1 was 0.3

Reported EC50 of N#Cc1c(N)nc(SCc2cccc(C(=O)O)c2)c(C#N)c1-c1ccc(F)cc1 : 3.5

Lab note: measured EC50 of CNC(=O)c1cc(CSc2nc(N)c(C#N)c(-c3ccc(F)c(C(F)(F)F)c3)c2C#N)ccn1 was 0.5

Lab note: CNC(=O)c1cc(CSc2nc(N)c(C#N)c(-c3ccc4c(c3)OCCO4)c2C#N)ccn1 gave EC50 of 0.06

Noted for CNC(=O)c1cc(CSc2ncc(C#N)c(-c3ccc(OC)cc3)c2C#N)ccn1 : its EC50 reads 1.6

The measured EC50 associated with CNC(=O)c1cc(CSc2nc(N3CC[C@@H](O)C3)c(C#N)c(-c3ccc4c(c3)OCCO4)c2C#N)ccn1 reads 0.2

Reported EC50 of CNC(=O)c1cc(CSc2nc(N(C)CCO)c(C#N)c(-c3ccccc3)c2C#N)ccn1 : 0.2

Quick note, EC50 for N#Cc1c(N)nc(OCc2ccnc(C(=O)NC3CC3)c2)c(C#N)c1-c1ccccc1 landed at 0.4

Looking up N#Cc1c(N)nc(SCc2ccnc(C(=O)NC3CC3)c2)c(C#N)c1-c1ccccc1 , I see its EC50 listed as 0.08

Memo: CNC(=O)c1cc(CSc2nc(N)c(C#N)c(-c3ccc(OCC(C)(C)O)cc3)c2C#N)ccn1 , reported EC50: 0.1

Hey, just so you know, these numbers are from patent US9187428B2.
